Where do these numbers come from? They come from ChEMBL document CHEMBL1201862.

# Tested on: CCRF-CEM
# assay comment: NCI tumour cell line growth inhibition, 48 h
The source made the active and inactive calls. Rule as the data show it: active = GI50 up to about 1.1 µM and inactive = higher.
Parameter call: string, one of active, inactive

Worked examples follow.
COc1ccc(CCCNC(=O)Cc2ccccc2CO)cc1OC = inactive
O=C1CCCN1C(=O)CS(=O)(=O)c1ccccc1 = inactive
CC1=CC(O)C(C(O)(C(F)(F)F)C(F)(F)F)C(C)(C)C1 (stereo unspecified) = inactive
C=C[Si](C)(C)COC(=O)/C(C#N)=C/C=C/c1ccccc1 = inactive
O=C(Cn1c(=O)oc2ccc(C(=O)c3ccccc3Cl)cc21)c1ccc([N+](=O)[O-])cc1 = inactive

Challenge: Short answer needed: outcome of this test for NC(=S)N/N=C(/CCN1CCCC1)CC(C1=C(O)C2=CCCCC2OC1=O)c1ccccc1 (stereo unspecified) ?
Response given: inactive

Challenge: Short answer needed: outcome of this test for `Cc1cccc(-c2cc(=O)c3cc(C)c(C)c(C(=O)O)c3o2)c1` ?
Response given: inactive

Challenge: Short answer needed: outcome of this test for `Cc1ccc(S(=O)(=O)Nc2cccc(C)c2C)cc1` ?
Response given: inactive

Challenge: Short answer needed: outcome of this test for O=C(N/N=C(\c1nc2ccc(Cl)cc2nc1O)C(O)c1ccccc1Cl)c1ccncc1 (stereo unspecified) ?
Response given: inactive

Challenge: Short answer needed: outcome of this test for `Brc1ccc2c(-c3csc(-c4c[nH]c5cc(Br)ccc45)n3)c[nH]c2c1` ?
Response given: inactive

Challenge: Short answer needed: outcome of this test for `S=C(N/N=C(/c1ccccc1)c1ccccn1)N1CCCCCC1` ?
Response given: active

---

# System: SR
# assay comment: NCI tumour cell line growth inhibition, 48 h
Active and inactive are the calls of the source. No stated cut-off is given here; in the data, active = GI50 up to about 1.1 µM and inactive = higher.
Parameter call: string, one of active, inactive

Worked examples follow.
CCN(CC)CCSc1c2cc(OC)ccc2nc2ccc(OC)cc12 = inactive
COc1ccc(-c2c3ccccc3c(-c3ccc(OC)cc3)c3ccccc23)cc1 = inactive
COc1ccc(/C(Cl)=C(\C=O)c2ccc(Cl)cc2)cc1OC = inactive
Cc1nc2c(=O)n(-c3ccccc3)c(=O)n(-c3ccccc3)c2o1 = inactive
COC(=O)C(=NNc1ccccc1[N+](=O)[O-])C(=O)OC = inactive

Challenge: Short answer needed: outcome of this test for `CCCC(=O)Oc1cc(OC(=O)CCC)c2c(C)cc(=O)oc2c1` ?
Response given: inactive

Challenge: Short answer needed: outcome of this test for NCCCn1c2ccccc2c2c3c(c4c(c21)CCC(O)CC4)C(=O)NC3=O (configuration not stated) ?
Response given: inactive

Challenge: Short answer needed: outcome of this test for `CCOc1c(OC)cc(CNNc2nccs2)cc1OC` ?
Response given: inactive

Challenge: Short answer needed: outcome of this test for `O=C1Nc2c(Cl)cccc2/C1=N/Nc1ccccc1[N+](=O)[O-]` ?
Response given: inactive

Challenge: Short answer needed: outcome of this test for `Cn1cnc(N2CCCC2)c(C#N)c1=S` ?
Response given: inactive

Challenge: Short answer needed: outcome of this test for `COc1ccc2[nH]c3c4c(ccc3c2c1)C(=O)C=CC4=O` ?
Response given: active

Challenge: Short answer needed: outcome of this test for OC1C2CCCCN2C[C@@H](O)[C@H]1O (some centres not stated) ?
Response given: inactive

---

# System: SN12C
# assay comment: NCI tumour cell line growth inhibition, 48 h
The source made the active and inactive calls. No stated cut-off is given here; in the data, active = GI50 up to about 1.1 µM and inactive = higher.
Parameter call: string, one of yes (1) for active, no (0) for inactive

Worked examples follow.
C=C1C(OC)=C(OC)C(=O)c2[nH]c3c(OC)cc([N+](=O)[O-])cc3c21 = no (0)
Cc1nccn1S(=O)(=O)c1ccc(Cl)cc1 = no (0)
Cc1cccc(-c2cc(=O)c3cc(C)c(C)c(C(=O)O)c3o2)c1 = no (0)
CC(=O)OCC1OC(O[C@@H]2C[C@H]3C(C)(C)[C@@H](OC(C)=O)CC[C@]3(C)[C@H]3CC[C@]45C[C@]4(CC[C@H]5[C@@H](C)C[C@@H](O)[C@H](O)C(C)(C)F)[C@@]32C)C(O)C(O)C1O (some centres undefined) = no (0)
O=C(CC(=O)c1ccc([N+](=O)[O-])cc1)C(=O)Nc1nccs1 = no (0)

Challenge: Short answer needed: outcome of this test for CCCN(CCCCC(NC(C)=O)C(=O)NCc1ccccc1)C(=O)NC (centres undefined) ?
Response given: no (0)

Challenge: Short answer needed: outcome of this test for C=C1C(=O)OC2/C=C(\C)CC(O)/C=C(/CO)CC(OC(=O)/C(C)=C/C)C12 (centres undefined) ?
Response given: no (0)

Challenge: Short answer needed: outcome of this test for OCC1OC(n2cnc3c(Cl)nc(Nc4ccccc4)nc32)CC1O (centres undefined) ?
Response given: no (0)

Challenge: Short answer needed: outcome of this test for O=C1CC(c2ccsc2)n2cccc21 (centres undefined) ?
Response given: no (0)

Challenge: Short answer needed: outcome of this test for CCC/C(=N\NC(=O)c1cc2ccccc2cc1O)C(CC)C(=O)CCC(=O)N(Cc1ccccc1)Cc1ccccc1 (centres undefined) ?
Response given: no (0)

---

# System: HOP-62
# assay comment: NCI tumour cell line growth inhibition, 48 h
The source made the active and inactive calls. Rule as the data show it: active = GI50 up to about 1.1 µM and inactive = higher. Residues, ends and D or L forms follow the SMILES beside them. *: point of attachment. Boc = CC(C)(C)OC(=O)*
measured attribute: GI50

Please review the entries below; each comes with its answer.
NC(=O)CC(N)C(=O)NC(Cc1ccccc1)C(=O)NC(Cc1ccccc1)NC(=O)C(Cc1c[nH]c2ccccc12)C(=O)O (configuration not stated) = > 100 µM (inactive)
CC(O)c1c2c(cc3c1CC1(C3)Cc3cc4c(c(C(C)O)c3C1)CCC4)CCC2 (configuration not stated) = 20.7 µM (inactive)
O=[N+]([O-])c1ccc2sc(/C=N/c3ccccn3)cc2c1 = > 100 µM (inactive)
Cc1cccc(-n2c(N)c(-c3nc4ccccc4[nH]3)sc2=S)c1 = 29.6 µM (inactive)
COC(=O)C(Cc1c[nH]c2ccccc12)NC(=O)C(Cc1c[nH]c2ccccc12)NC(=O)C(Cc1c[nH]c2ccccc12)NC(=O)C(Cc1c[nH]c2ccccc12)NC(=O)OC(C)(C)C (configuration not stated) (Boc-WWWW-OMe; configuration not given here) = 25.6 µM (inactive)

Challenge: // Input: CC(=O)OCC1OC(O[C@@H]2C[C@H]3C(C)(C)[C@@H](OC(C)=O)CC[C@]3(C)[C@H]3CC[C@]45C[C@]4(CC[C@H]5[C@@H](C)C[C@@H](O)[C@H](O)C(C)(C)F)[C@@]32C)C(O)C(O)C1O (some centres not stated) . Output its GI50 only.
Response given: 50 µM (inactive)

Challenge: // Input: CCOC(=O)C1CC(C(=O)c2ccccc2)N2c3ccccc3-c3ccccc3C12 (configuration not stated) . Output its GI50 only.
Response given: 97.1 µM (inactive)

---

# Tested on: OVCAR-4
# assay comment: NCI tumour cell line growth inhibition, 48 h
Calls of active or inactive are those of the source. Cut-off read from the data, not from the text of the source: active = GI50 up to about 1.1 µM and inactive = higher.
Below, each of the compounds is paired with its reported GI50 value.

Challenge: // Input: `COc1cc2c(cc1NC(=O)c1ccccc1)c1c(n2S(=O)(=O)c2ccccc2)CCN(S(=O)(=O)c2ccccc2)C1` . Output its GI50 only.
Response given: > 100 µM (inactive)

Challenge: // Input: CC(CO)(CBr)COC(=O)c1cc(Br)c(N)c(Br)c1 (stereo not given) . Output its GI50 only.
Response given: > 100 µM (inactive)

Challenge: // Input: CCC1CCC2c3c([nH]c4ccc(C)cc34)C3C(=O)N(N(C)C)C(=O)C3C2C1 (stereo not given) . Output its GI50 only.
Response given: 34 µM (inactive)

Challenge: // Input: O=S1(=O)c2ccccc2N2C(c3ccccc3)=NOC2(c2ccccc2)CC1c1ccc(Br)cc1 (stereo not given) . Output its GI50 only.
Response given: > 100 µM (inactive)

Challenge: // Input: `CN/C(=N/C#N)NCc1ccccc1` . Output its GI50 only.
Response given: > 100 µM (inactive)

---

Below, each of the molecules is paired with its reported GI50 value.
# System: CAKI-1
# assay comment: NCI tumour cell line growth inhibition, 48 h
Active and inactive are the calls of the source. Rule as the data show it: active = GI50 up to about 1.1 µM and inactive = higher.

Please review the entries below; each comes with its answer.
Cc1noc(/N=C2\C=C(O)C(=O)c3ccccc32)c1C = 5 µM (inactive)
CCOC(=O)Cn1c(=O)[nH]c(=O)c2c1ncn2Cc1ccccc1 = > 100 µM (inactive)
C/C(=N\Nc1ccccc1)C(CN(C)C)C(c1ccccc1)c1c(O)c2ccccc2oc1=O (configuration not stated) = > 100 µM (inactive)
CNC(=O)OCc1nc([S+](C)[O-])n(C)c1COC(=O)NC (configuration not stated) = > 58.7 µM (inactive)
Nc1ccc(S(=O)(=O)Nc2nc3ccccc3nc2N2CCCCCC2)cc1 = 26.4 µM (inactive)

Challenge: // Input: `Cn1cc(C(=O)C[n+]2ccccc2)c2ccccc21` . Output its GI50 only.
Response given: 30.3 µM (inactive)

Challenge: // Input: `Cc1cccc(-c2cc(=O)c3cc(C)c(C)c(C(=O)O)c3o2)c1` . Output its GI50 only.
Response given: > 100 µM (inactive)

Challenge: // Input: `CC1(C)OC(=O)C(c2ccsc2)C(=O)O1` . Output its GI50 only.
Response given: > 100 µM (inactive)

Challenge: // Input: CC1(C)C2CCC(N)(C2)C1N (configuration not stated) . Output its GI50 only.
Response given: > 100 µM (inactive)

Challenge: // Input: `COc1ccc2nc(/C(N)=C\C#N)ccc2c1` . Output its GI50 only.
Response given: > 100 µM (inactive)

Challenge: // Input: `CCOC(=O)n1c2ccccc2c2c(O)c(OC)c3c(c21)C(=O)NC3=O` . Output its GI50 only.
Response given: 20.7 µM (inactive)

Challenge: // Input: O=C(CN1C(=O)c2ccccc2C1=O)OCC1CCCN2CCCCC12 (configuration not stated) . Output its GI50 only.
Response given: > 100 µM (inactive)
